Test system: Pseudomonas aeruginosa X239
Assay: MIC, standard agar-dilution assay (Table VI)
Format: cell-based
Conditions: P. aeruginosa X239, agar dilution, read-out: MIC
measuredQuantity: MIC (µg/mL)
Give bare numbers, in µg/mL.

{"columns": ["compound", "MIC [µg/mL]"],
 "data": [
  ["CCC1OC(=O)CC(O)C(C)C(OC2OC(C)C(O)C(N(C)C)C2O)C(CC=O)CC(C)C(=O)C=CC(C)=CC1CSc1ccccc1 (stereo not shown)", 64]
]}

Quick check: MIC of CCC1OC(=O)CC(O)C(C)C(OC2OC(C)C(O)C(N(C)C)C2O)C(CC=O)CC(C)C(=O)C=CC(C)=CC1CF (stereo not shown) ?
64

----------
Test system: Pasteurella hemolytica 23C
Experiment: MIC, broth-dilution microtiter test (Table VII)
Type: cell-based
Conditions: Pasteurella, P. hemolytica 23C, read-out: MIC
Where a name gives a salt, the structure may show the parent alone.
I'd be grateful if you could share measured log10 MIC for these entries.
Hello, just confirming the data are log10 of MIC with units of µg/mL.

{"columns": ["compound", "measuredQuantity", "measurement"],
 "data": [
  ["CCC1OC(=O)CC(O)C(C)C(OC2OC(C)C(O)C(N(C)C)C2O)C(CC=O)CC(C)C(=O)C=CC(C)=CC1CSc1nnc(C)s1 (centres unmarked) [Compound 3]", "log10 MIC", 0.80],
  ["CCC1OC(=O)CC(O)C(C)C(OC2OC(C)C(O)C(N(C)C)C2O)C(CC=O)CC(C)C(=O)C=CC(C)=CC1CNC(=O)[C@H](N)c1ccccc1 (single isomer, unassigned) [Compound 12, bis(trifluoroacetate) salt]", "log10 MIC", 1.70],
  ["CCC1OC(=O)CC(O)C(C)C(OC2OC(C)C(O)C(N(C)C)C2O)C(CC=O)CC(C)C(=O)C=CC(C)=CC1CSc1nnnn1C (centres unmarked) [Compound 5]", "log10 MIC", 1.10],
  ["CCC1OC(=O)CC(O)C(C)C(OC2OC(C)C(O)C(N(C)C)C2O)C(CC=O)CC(C)C(=O)C=CC(C)=CC1CNC(=O)Cc1ccccc1 (centres unmarked) [Compound 10, 23-Deoxy-23-N-(phenylacetyl)amino-OMT]", "log10 MIC", 1.10],
  ["CCC1OC(=O)CC(O)C(C)C(OC2OC(C)C(O)C(N(C)C)C2O)C(CC=O)CC(C)C(=O)C=CC(C)=CC1CSc1ccccc1 (centres unmarked) [Compound 2, 23-Deoxy-23-(phenyl)thio-OMT]", "log10 MIC", 0.49],
  ["C=C1C=CC(=O)C(C)CC(CC=O)C(OC2OC(C)C(O)C(N(C)C)C2O)C(C)C(O)CC(=O)OC(CC)C2CC12 (centres unmarked) [Compound 16]", "log10 MIC", 1.70],
  ["CCC1OC(=O)CC(O)C(C)C(OC2OC(C)C(O)C(N(C)C)C2O)C(CC=O)CC(C)C(=O)C=CC(C)(OC)C2CC12 (centres unmarked) [Compound 17]", "log10 MIC", 1.40],
  ["CCC1OC(=O)CC(O)C(C)C(OC2OC(C)C(O)C(N(C)C)C2O)C(CC=O)CC(C)C(=O)C=CC(C)(OCCc2ccccc2)C2CC12 (centres unmarked) [Compound 18]", "log10 MIC", 1.40]
]}

Hey, can you go through the list below and give me log10 MIC for every item?
1. CCC1OC(=O)CC(O)C(C)C(OC2OC(C)C(O)C(N(C)C)C2O)C(CC=O)CC(C)C(=O)C=CC(C)=CC1CSC(C)=O (centres unmarked) [Compound 7, 23-Deoxy-23-(acetyl)thio-OMT]
2. CCC1OC(=O)CC(O)C(C)C(OC2OC(C)C(O)C(N(C)C)C2O)C(CC=O)CC(C)C(=O)C=CC(C)=CC1CNC(=O)[C@H](NC(=O)OC(C)(C)C)c1ccccc1 (single isomer, unassigned) [Compound 11]

1. 0.80
2. 1.40

----------
Kindly supply the reported MIC values for the records listed here.
Test system: Streptococcus Group 9960
Assay: MIC, standard agar-dilution assay (Table V)
Format: cell-based
Details: GROUP9960; Streptococcus Group 9960; agar dilution; read-out: MIC
One number for each entry, in µg/mL.

Please review the following examples before continuing.
{"columns": ["compound", "MIC [µg/mL]"],
 "data": [
  ["CCC1OC(=O)CC(O)C(C)C(OC2OC(C)C(O)C(N(C)C)C2O)C(CC=O)CC(C)C(=O)C=CC(C)=CC1CSc1n[nH]c(=O)c(=O)n1C (centres unmarked)", 16],
  ["CCC1OC(=O)CC(O)C(C)C(OC2OC(C)C(O)C(N(C)C)C2O)C(CC=O)CC(C)C(=O)C=CC(C)=CC1CN=[N+]=[N-] (centres unmarked)", 0.5],
  ["CCC1OC(=O)CC(O)C(C)C(OC2OC(C)C(O)C(N(C)C)C2O)C(CC=O)CC(C)C(=O)C=CC(C)=CC1CSc1nnc(C)o1 (centres unmarked)", 0.5]
]}

Batch: MIC for all items listed.
1. CCC1OC(=O)CC(O)C(C)C(OC2OC(C)C(O)C(N(C)C)C2O)C(CC=O)CC(C)C(=O)C=CC(C)=CC1CSc1nnnn1C (centres unmarked)
2. CCC1OC(=O)CC(O)C(C)C(OC2OC(C)C(O)C(N(C)C)C2O)C(CC=O)CC(C)C(=O)C=CC(C)=CC1CNC(=O)[C@H](NC(=O)OC(C)(C)C)c1ccccc1 (single isomer, unassigned)

1: 0.5; 2: 2

----------
Would you mind telling me the reported MIC of each entry?
Test system: Salmonella typhi 1335
Give bare numbers, in µg/mL.

Some molecules with known MIC results, for comparison:
{"columns": ["molecule", "measurement"],
 "data": [
  ["CCC1OC(=O)CC(O)C(C)C(OC2OC(C)C(O)C(N(C)C)C2O)C(CC=O)CC(C)C(=O)C=CC(C)=CC1CN=[N+]=[N-] (stereo not shown)", 64],
  ["CCC1OC(=O)CC(O)C(C)C(OC2OC(C)C(O)C(N(C)C)C2O)C(CC=O)CC(C)C(=O)C=CC(C)=CC1CF (stereo not shown)", 64]
]}

Kindly review the next molecule as well.
Given CCC1OC(=O)CC(O)C(C)C(OC2OC(C)C(O)C(N(C)C)C2O)C(CC=O)CC(C)C(=O)C=CC(C)=CC1CSc1ccccc1 (stereo not shown) , state its recorded MIC.
64

----------
Test system: Enterobacter aerogenes EB17
Assay: MIC, standard agar-dilution assay (Table VI)
Type: cell-based
Details: Klebsiella aerogenes, EB17
Record form. Attribute: MIC. Fill in for each entry.
Give bare numbers, in µg/mL.

{"columns": ["molecule", "measuredQuantity", "measurement"],
 "data": [
  ["CCC1OC(=O)CC(O)C(C)C(OC2OC(C)C(O)C(N(C)C)C2O)C(CC=O)CC(C)C(=O)C=CC(C)=CC1CN=[N+]=[N-] (stereo not shown) [Compound 8, 23-Deoxy-23-azido-OMT]", "MIC", 64]
]}

# ---- query molecule ----
# get_value(readout= MIC, system= Enterobacter aerogenes EB17) for CCC1OC(=O)CC(O)C(C)C(OC2OC(C)C(O)C(N(C)C)C2O)C(CC=O)CC(C)C(=O)C=CC(C)=CC1CSc1ccccc1 (stereo not shown) [Compound 2, 23-Deoxy-23-(phenyl)thio-OMT]
32

----------
Would you kindly list MIC for each of these compounds?
Test system: Pasteurella hemolytica 23C
Experiment: MIC, broth-dilution microtiter test (Table VII)
Type: cell-based
Settings: Pasteurella, P. hemolytica 23C, read-out: MIC
Give bare numbers, in µg/mL.

Illustrative cases are given below, each with its answer.
{"columns": ["compound", "MIC (µg/mL)"],
 "data": [
  ["CCC1OC(=O)CC(O)C(C)C(OC2OC(C)C(O)C(N(C)C)C2O)C(CC=O)CC(C)C(=O)C=CC(C)=CC1CSc1n[nH]c(=O)c(=O)n1C (stereo not drawn) [Compound 6]", 50],
  ["CCC1OC(=O)CC(O)C(C)C(OC2OC(C)C(O)C(N(C)C)C2O)C(CC=O)CC(C)C(=O)C=CC(C)=CC1CN=[N+]=[N-] (stereo not drawn) [Compound 8, 23-Deoxy-23-azido-OMT]", 6.25]
]}

For the next question, use this compound.
Need MIC of CCC1OC(=O)CC(O)C(C)C(OC2OC(C)C(O)C(N(C)C)C2O)C(CC=O)CC(C)C(=O)C=CC(C)=CC1CSc1nnc(C)o1 (stereo not drawn) [Compound 4] , thanks.
12.5

----------
Tested on: Streptococcus pyogenes C203
Test: MIC, standard agar-dilution assay (Table V)
Format: cell-based
Conditions: Streptococcus pyogenes, C203
measuredQuantity: MIC (µg/mL)
One number for each entry, in µg/mL.

{"columns": ["compound", "scaleUnit", "measurement"],
 "data": [
  ["CCC1OC(=O)CC(O)C(C)C(OC2OC(C)C(O)C(N(C)C)C2O)C(CC=O)CC(C)C(=O)C=CC(C)=CC1CSc1nnc(C)s1 (centres unmarked) [Compound 3]", "µg/mL", 0.125],
  ["CCC1OC(=O)CC(O)C(C)C(OC2OC(C)C(O)C(N(C)C)C2O)C(CC=O)CC(C)C(=O)C=CC(C)=CC1CSC(C)=O (centres unmarked) [Compound 7, 23-Deoxy-23-(acetyl)thio-OMT]", "µg/mL", 0.25],
  ["CCC1OC(=O)CC(O)C(C)C(OC2OC(C)C(O)C(N(C)C)C2O)C(CC=O)CC(C)C(=O)C=CC(C)=CC1CSc1nnc(C)o1 (centres unmarked) [Compound 4]", "µg/mL", 0.25],
  ["C=C1C=CC(=O)C(C)CC(CC=O)C(OC2OC(C)C(O)C(N(C)C)C2O)C(C)C(O)CC(=O)OC(CC)C2CC12 (centres unmarked) [Compound 16]", "µg/mL", 1]
]}

Okay, now this compound:
// fetch Streptococcus pyogenes C203 MIC for CCC1OC(=O)CC(O)C(C)C(OC2OC(C)C(O)C(N(C)C)C2O)C(CC=O)CC(C)C(=O)C=CC(C)=CC1CSc1n[nH]c(=O)c(=O)n1C (centres unmarked) [Compound 6]
1
